# assay.notes: Pharmacokinetics in the brain compartment compared to plasma in mice
# Type: in vivo
# test.settings: BALB/c, mouse, plasma, iv, 3 mg/kg, 3 mg/kg IV, Study 2A (2% DMA formulation), 1 hour
measurement.kind: Cmax at 1 h
Note: a bare number is incomplete; add the unit.

Please give the measured Cmax at 1 h for this compound: O=C1CCc2cc(OC[C@H](O)CN3CCN(c4ccc(C(F)(F)F)cc4)CC3)ccc2N1 600 ng/mL

* * *

# assay.notes: in vivo
# test.settings: BALB/c, mouse, plasma, po, 10 mg/kg
measurement.kind: half-life

Please give the measured half-life for this compound: O=C1CCc2cc(OC[C@H](O)CN3CCN(c4ccc(C(F)(F)F)cc4)CC3)ccc2N1 7.06 h

* * *

# experimental.system: human GluN1/GluN2B (Homo sapiens (Human), UniProt Q05586+Q13224)
# Sequence (Q13224 27-1484, other chains not shown): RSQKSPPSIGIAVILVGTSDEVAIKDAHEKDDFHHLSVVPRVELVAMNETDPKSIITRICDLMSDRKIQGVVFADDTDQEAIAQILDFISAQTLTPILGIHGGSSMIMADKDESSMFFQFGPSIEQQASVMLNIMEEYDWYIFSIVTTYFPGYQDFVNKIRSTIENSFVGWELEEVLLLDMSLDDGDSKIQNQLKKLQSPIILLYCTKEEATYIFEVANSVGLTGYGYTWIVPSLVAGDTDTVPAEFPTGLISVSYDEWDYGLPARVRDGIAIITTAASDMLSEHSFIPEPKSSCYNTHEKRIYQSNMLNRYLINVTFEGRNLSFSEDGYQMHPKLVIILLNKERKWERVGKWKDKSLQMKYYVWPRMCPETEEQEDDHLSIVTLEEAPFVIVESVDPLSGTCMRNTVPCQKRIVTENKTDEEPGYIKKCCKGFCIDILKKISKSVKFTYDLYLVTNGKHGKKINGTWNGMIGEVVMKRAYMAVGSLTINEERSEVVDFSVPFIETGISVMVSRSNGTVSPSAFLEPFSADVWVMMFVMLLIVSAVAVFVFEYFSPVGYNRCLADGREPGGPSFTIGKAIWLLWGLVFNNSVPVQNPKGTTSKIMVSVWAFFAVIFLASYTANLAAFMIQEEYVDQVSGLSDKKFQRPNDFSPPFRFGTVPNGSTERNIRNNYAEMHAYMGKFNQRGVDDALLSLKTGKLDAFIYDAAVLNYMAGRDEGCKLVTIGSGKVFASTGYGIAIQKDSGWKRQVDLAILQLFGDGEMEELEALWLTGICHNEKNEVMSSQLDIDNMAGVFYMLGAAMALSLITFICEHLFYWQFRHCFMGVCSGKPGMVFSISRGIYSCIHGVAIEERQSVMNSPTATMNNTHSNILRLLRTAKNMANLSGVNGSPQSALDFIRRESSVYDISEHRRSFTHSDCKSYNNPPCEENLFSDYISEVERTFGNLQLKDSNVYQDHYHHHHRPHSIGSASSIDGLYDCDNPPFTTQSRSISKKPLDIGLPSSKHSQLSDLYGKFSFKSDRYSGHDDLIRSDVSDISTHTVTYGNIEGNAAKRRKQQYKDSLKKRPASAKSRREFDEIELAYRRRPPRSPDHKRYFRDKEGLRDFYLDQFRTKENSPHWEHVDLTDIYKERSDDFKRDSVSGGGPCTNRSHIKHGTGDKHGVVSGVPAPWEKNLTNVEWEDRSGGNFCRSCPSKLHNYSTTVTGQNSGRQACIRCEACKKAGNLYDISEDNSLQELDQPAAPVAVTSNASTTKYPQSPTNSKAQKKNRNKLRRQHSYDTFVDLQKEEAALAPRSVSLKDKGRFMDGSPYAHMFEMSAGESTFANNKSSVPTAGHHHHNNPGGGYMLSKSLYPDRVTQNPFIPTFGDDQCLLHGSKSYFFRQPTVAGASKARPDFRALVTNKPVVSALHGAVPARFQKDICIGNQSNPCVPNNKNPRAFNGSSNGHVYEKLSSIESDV
# assay.notes: Two electrode voltage-clamp recordings from Xenopus laevis oocytes, GluN2B potency and pH dependence
# Assay type: cell-based
# test.settings: ratio of IC50 at pH 7.6 to IC50 at pH 6.9
measurement.kind: pH Boost
Please give the numeric answer without any surrounding text.

O=C1CCc2cc(OC[C@@H](O)CN3CCN(c4ccc(C(F)(F)F)cc4)CC3)ccc2N1 [NP10309]	6.5
Oc1ccc(OC[C@H](O)CN2CCN(c3ccc(F)c(F)c3)CC2)cc1 [Compound 10052]	5.4
CCc1ccc(N2CCN(C[C@H](O)COc3ccc(O)cc3)CC2)cc1 [Compound 10171]	6.9
NC(=O)Nc1ccc(OC[C@@H](O)CN2CCN(c3ccc(Cl)cc3)CC2)cc1 [Compound 10075]	9.8
CCCc1ccc(N2CCN(C[C@@H](O)COc3ccc(NC(N)=O)cc3)CC2)cc1 [Compound 10224]	5.0
NC(=O)Nc1ccc(OC[C@H](O)CN2CCN(c3ccc(Cl)c(Cl)c3)CC2)cc1 [Compound 10166]	4.4
CCc1ccc(N2CCN(C[C@H](O)COc3ccc(NC(N)=O)cc3)CC2)cc1 [Compound 10189]	10.6
NC(=O)Nc1ccc(OC[C@@H](O)CN2CCN(c3ccc(C(F)(F)F)cc3)CC2)cc1 [Compound 10294]	7.0
O=C1Cc2cc(OC[C@@H](O)CN3CCN(c4ccc(Cl)cc4)CC3)ccc2N1 [Compound 10146]	12.8
O=C1Cc2cc(OC[C@H](O)CN3CCN(c4ccc(Cl)cc4)CC3)ccc2N1 [Compound 10228]	4.9

Please give the measured pH Boost for this compound: CCCCc1ccc(N2CCN(C[C@@H](O)COc3ccc(O)cc3)CC2)cc1 [Compound 10249] 6.2

Please give the measured pH Boost for this compound: O=C1CCc2cc(OC[C@H](O)CN3CCN(c4ccc(C(F)(F)F)cc4)CC3)ccc2N1 [NP10679] 6.2

Please give the measured pH Boost for this compound: NC(=O)Nc1ccc(OC[C@@H](O)CN2CCN(c3ccc(F)cc3)CC2)cc1 [Compound 10214] 9.9

Please give the measured pH Boost for this compound: Oc1ccc(OC[C@H](O)CN2CCN(c3ccccc3)CC2)cc1 [Compound 10243] 8.1

* * *

Each entry below carries its reported IC50.
# experimental.system: human GluN1/GluN2B (Homo sapiens (Human), UniProt Q05586+Q13224)
# assay.notes: Two electrode voltage-clamp recordings from Xenopus laevis oocytes, GluN2B potency and pH dependence
# Type: cell-based
# test.settings: pH 6.9; read-out: IC50 (μM) pH 6.9
Please respond with the number in µM and leave the unit unwritten.

Use the examples below as a reference point.
Oc1ccc(OC[C@H](O)CN2CCN(c3ccccc3)CC2)cc1	0.071
NC(=O)Nc1ccc(OC[C@@H](O)CN2CCN(c3ccc(C(F)(F)F)cc3)CC2)cc1	0.03

Please give the measured IC50 for this compound: Cc1ccc(N2CCN(C[C@@H](O)COc3ccc(O)cc3)CC2)cc1 0.047

Please give the measured IC50 for this compound: Oc1ccc(OC[C@@H](O)CN2CCN(c3ccc(F)c(F)c3)CC2)cc1 0.087

FYI, the data here is from patent US20240360091A1.
